Hello, the source for this data is the kinase profiling compilation of Christmann-Franck et al. (2016), in case you need it.

# experimental_target: UniProt:Q00532
# Sequence (Q00532 whole entry, looked up): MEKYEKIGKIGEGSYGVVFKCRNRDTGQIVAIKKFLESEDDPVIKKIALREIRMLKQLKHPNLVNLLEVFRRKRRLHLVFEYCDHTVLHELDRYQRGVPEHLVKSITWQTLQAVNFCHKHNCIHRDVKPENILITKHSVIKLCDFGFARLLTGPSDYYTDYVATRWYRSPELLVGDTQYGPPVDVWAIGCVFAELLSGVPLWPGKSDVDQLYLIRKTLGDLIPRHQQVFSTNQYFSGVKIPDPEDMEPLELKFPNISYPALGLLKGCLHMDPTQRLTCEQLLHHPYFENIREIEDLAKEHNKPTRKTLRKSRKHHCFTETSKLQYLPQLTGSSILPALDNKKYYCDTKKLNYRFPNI
# experiment_notes: KINOMEscan competition binding
# study_conditions: compound 10.0 µM
# binning rule on kinase still bound, per cent of control: lo = under 40%, mid = from 40% up to 70%, hi = 70% and over

Look over these answered cases.
structure_notation | group
COc1cc(C(=O)N2CCC(N3CCN(C)CC3)CC2)ccc1Nc1ncc2c(n1)N(C)c1ccccc1C(=O)N2C | hi
O=C(Nc1cccc(Nc2ncc(Br)c(NCCc3cnc[nH]3)n2)c1)N1CCCC1 | lo
N#CCNC(=O)c1ccc(-c2ccnc(Nc3ccc(N4CCOCC4)cc3)n2)cc1 | mid
COc1ccc(N(C(=O)Oc2c(C)cccc2C)c2ccnc(Nc3ccc(N4CCN(C)CC4)cc3)n2)c(OC)c1 | hi
COc1cc2ncnc(-n3nc(-c4ccccn4)nc3N)c2cc1OC | lo

Shift focus to the following entry.
State the band of "O=C1NC(=O)/C(=C/c2ccc3nccc(-c4ccncc4)c3c2)S1"
mid

====

# experimental_target: PRKAA2 (human) (UniProt P54646)
# Sequence (P54646 whole entry, looked up): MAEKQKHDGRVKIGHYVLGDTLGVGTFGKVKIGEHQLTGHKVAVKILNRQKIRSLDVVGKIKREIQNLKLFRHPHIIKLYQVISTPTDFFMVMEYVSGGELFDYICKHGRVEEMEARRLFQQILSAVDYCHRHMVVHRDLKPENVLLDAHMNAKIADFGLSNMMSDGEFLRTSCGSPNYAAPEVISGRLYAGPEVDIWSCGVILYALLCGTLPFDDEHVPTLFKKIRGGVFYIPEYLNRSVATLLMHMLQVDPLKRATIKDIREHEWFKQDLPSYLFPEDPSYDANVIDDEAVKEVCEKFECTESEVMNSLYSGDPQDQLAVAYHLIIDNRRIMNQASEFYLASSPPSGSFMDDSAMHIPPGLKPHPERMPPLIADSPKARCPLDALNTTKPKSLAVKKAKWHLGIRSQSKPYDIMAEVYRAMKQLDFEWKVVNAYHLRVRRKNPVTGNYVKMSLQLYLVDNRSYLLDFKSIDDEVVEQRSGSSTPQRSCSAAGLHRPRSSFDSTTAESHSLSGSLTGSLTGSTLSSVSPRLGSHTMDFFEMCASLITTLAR
# experiment_notes: KINOMEscan competition binding
# study_conditions: compound 10.0 µM
Listing of entries alongside the reported kinase still bound, per cent of control.
The answer is to be given in %; state only the numeric part.

structure_notation | quantity_name | units_of_measure | quantitative_result
COc1cc(C(=O)N2CCC(N3CCN(C)CC3)CC2)ccc1Nc1ncc2c(n1)N(C)c1ccccc1C(=O)N2C | kinase still bound, per cent of control | % | 66
Cc1n[nH]c2ccc(-c3cncc(OC[C@@H](N)Cc4c[nH]c5ccccc45)c3)cc12 | kinase still bound, per cent of control | % | 100
COCC(=O)NC/C=C/c1ccc2ncnc(Nc3ccc(Oc4ccc(C)nc4)c(C)c3)c2c1 | kinase still bound, per cent of control | % | 100
CS(=O)(=O)N1CCN(Cc2cc3nc(-c4cccc5[nH]ncc45)nc(N4CCOCC4)c3s2)CC1 | kinase still bound, per cent of control | % | 100

Now take the following molecule into account.
Please give the measured kinase still bound, per cent of control for this molecule: "COc1cc(N2CCN(C)CC2)ccc1Nc1ncc2c(n1)N(C)c1ccccc1C(=O)N2C"
100

====

# experimental_target: ALK (human) (UniProt Q9UM73)
# Sequence (Q9UM73 whole entry, looked up): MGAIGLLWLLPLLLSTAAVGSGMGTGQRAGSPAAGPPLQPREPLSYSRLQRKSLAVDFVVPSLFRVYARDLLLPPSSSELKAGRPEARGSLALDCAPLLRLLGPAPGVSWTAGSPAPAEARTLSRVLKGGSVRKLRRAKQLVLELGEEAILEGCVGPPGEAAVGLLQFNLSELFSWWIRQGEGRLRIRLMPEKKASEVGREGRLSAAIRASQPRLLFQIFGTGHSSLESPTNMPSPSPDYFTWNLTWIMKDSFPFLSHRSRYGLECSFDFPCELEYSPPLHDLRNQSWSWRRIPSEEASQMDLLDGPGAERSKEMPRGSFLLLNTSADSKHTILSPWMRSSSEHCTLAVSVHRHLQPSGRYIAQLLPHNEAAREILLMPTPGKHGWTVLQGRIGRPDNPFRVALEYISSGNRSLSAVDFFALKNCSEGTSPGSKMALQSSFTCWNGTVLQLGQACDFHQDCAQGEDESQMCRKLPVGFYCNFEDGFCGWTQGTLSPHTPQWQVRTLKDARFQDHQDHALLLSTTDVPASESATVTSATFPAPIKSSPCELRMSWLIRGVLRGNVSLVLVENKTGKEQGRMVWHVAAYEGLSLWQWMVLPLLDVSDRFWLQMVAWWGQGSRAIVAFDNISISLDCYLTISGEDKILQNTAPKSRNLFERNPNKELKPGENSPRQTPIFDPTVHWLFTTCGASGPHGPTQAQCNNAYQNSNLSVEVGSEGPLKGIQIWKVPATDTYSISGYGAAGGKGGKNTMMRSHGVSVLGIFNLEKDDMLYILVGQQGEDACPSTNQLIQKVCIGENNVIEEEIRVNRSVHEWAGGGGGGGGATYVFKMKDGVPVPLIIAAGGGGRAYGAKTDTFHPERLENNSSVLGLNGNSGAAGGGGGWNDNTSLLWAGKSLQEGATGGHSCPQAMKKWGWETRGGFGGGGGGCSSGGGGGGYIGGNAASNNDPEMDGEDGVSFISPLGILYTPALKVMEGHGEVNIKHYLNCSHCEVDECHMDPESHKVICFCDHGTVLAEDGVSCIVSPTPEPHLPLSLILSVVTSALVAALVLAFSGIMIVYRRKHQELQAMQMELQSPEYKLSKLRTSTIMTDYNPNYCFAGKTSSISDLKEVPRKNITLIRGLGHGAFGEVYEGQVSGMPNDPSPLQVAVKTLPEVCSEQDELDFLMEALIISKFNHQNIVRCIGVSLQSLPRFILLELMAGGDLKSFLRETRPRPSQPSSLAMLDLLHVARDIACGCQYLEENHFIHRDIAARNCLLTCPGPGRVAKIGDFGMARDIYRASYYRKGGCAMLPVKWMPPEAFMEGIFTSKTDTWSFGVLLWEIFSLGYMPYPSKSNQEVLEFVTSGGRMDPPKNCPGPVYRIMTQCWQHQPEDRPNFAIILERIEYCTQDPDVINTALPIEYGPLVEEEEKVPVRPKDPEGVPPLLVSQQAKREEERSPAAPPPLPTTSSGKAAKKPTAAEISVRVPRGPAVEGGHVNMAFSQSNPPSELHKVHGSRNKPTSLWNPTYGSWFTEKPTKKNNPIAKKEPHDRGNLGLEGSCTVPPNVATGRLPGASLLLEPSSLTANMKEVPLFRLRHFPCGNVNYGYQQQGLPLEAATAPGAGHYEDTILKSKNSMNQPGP
# experiment_notes: KINOMEscan competition binding
# study_conditions: compound 10.0 µM
quantity_name: kinase still bound, per cent of control (%)
Please give a number only; it is taken to be in %.

Here are 3 molecules together with their reported answers.
structure_notation | units_of_measure | quantitative_result
COc1ccc(N(C(=O)Oc2c(C)cccc2C)c2ccnc(Nc3ccc(N4CCN(C)CC4)cc3)n2)c(OC)c1 | % | 0.35
COc1cc2ncnc(-n3nc(-c4ccccn4)nc3N)c2cc1OC | % | 45
CN(C)C/C=C/C(=O)Nc1ccc(C(=O)Nc2cccc(Nc3nccc(-c4cccnc4)n3)c2)cc1 | % | 100

What does the record list as kinase still bound, per cent of control for "C=CC(=O)Nc1ccc(CN(C(=O)Nc2c(Cl)c(OC)cc(OC)c2Cl)c2cc(Nc3ccc(N4CCN(C)CC4)cc3)ncn2)cc1" ?
100

Same read-out for "COc1cc(N2CCN(C)CC2)ccc1Nc1ncc2c(n1)N(C)c1ccccc1C(=O)N2C" ?
16

Also "NC(=O)Nc1cc(-c2cccc(F)c2)sc1C(=O)N[C@@H]1CCCNC1" , if possible.
0.05

Entry "O=C(Nc1cccc(Nc2ncc(Br)c(NCCc3cnc[nH]3)n2)c1)N1CCCC1" please
14

Try the molecule "CCN1CCN(C(=O)Cc2ccc(Nc3ncc(F)c(Nc4ccc(C(=O)Nc5ccccc5Cl)cc4)n3)cc2)CC1"
22

Then what about the molecule "CCN(CC)CCCCNc1ncc2cc(-c3cc(OC)cc(OC)c3)c(NC(=O)NC(C)(C)C)nc2n1" ?
100

And for "N#CCNC(=O)c1ccc(-c2ccnc(Nc3ccc(N4CCOCC4)cc3)n2)cc1" ?
100

Entry "Cc1n[nH]c2ccc(-c3cncc(OC[C@@H](N)Cc4c[nH]c5ccccc45)c3)cc12" please
100

Lookup "COc1cc2ncn(-c3cc(OCc4ccccc4C(F)(F)F)c(C(N)=O)s3)c2cc1OC"
100

One more molecule: "CNC(=O)c1cc(Oc2ccc(NC(=O)Nc3ccc(Cl)c(C(F)(F)F)c3)cc2)ccn1"
69
